Value source: FireProtDB (doi:10.1006/jmbi.1998.1906)

Listed here: items and their measured Tm.
B1: Lysozyme C, P61626 (parent)
chain: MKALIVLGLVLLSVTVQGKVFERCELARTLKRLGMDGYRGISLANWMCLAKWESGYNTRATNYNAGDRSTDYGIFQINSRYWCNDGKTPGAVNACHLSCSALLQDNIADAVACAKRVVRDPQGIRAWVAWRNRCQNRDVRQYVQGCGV

# Variants of: B1
# Applied Conditions: Homo sapiens; pH 2.7; Thermal; DSC; glycine 0.05 M; reversible: yes; structure 1LZ1; whole UniProt chain shown
// units = °C; emit number, no label

Guide cases for Tm, answers given:
1) V92A
47.3
2) V128A
49.5
3) V139A
39.9
4) V143A
42.2
5) I74V
42.9

Now look at this entry.
Given the entry I107V , report its measured Tm.
46.5
